# protocolNotes: Cytotoxicity in Vero E6 cells (neutral red uptake)
# experimentalParameters: African green monkey, CC50 in Vero E6 cells

# smilesText, CC50 at 5 days
records = [
    ("C[C@H](NC(=O)[C@@H](c1cccnc1)N(C(=O)C(Cl)Cl)c1ccc(-c2ccccc2)cc1)c1ccccc1", "> 100 µM"),
]

----------
# System: SARS-CoV-2
# protocolNotes: microbe, parasite or virus in culture
# Assay type: cell-based
# experimentalParameters: Severe acute respiratory syndrome coronavirus 2, Vero C1008; read-out: antiviral EC50 against SARS-CoV-2 in Vero E6 cells
pEC50: −log10 of the molar value.
# reported pEC50; entries follow

# compound, experimentalTarget, pEC50
data = [
    ("C[C@H](NC(=O)[C@@H](c1cccnc1)N(C(=O)C(Cl)Cl)c1ccc(-c2ccccc2)cc1)c1ccc(Br)cc1 [Jun9-90-3R]", "SARS-CoV-2", 5.68),
    ("C[C@H](NC(=O)[C@@H](c1cccnc1)N(C(=O)C(Cl)Cl)c1ccc(-c2ccccc2)cc1)c1ccccc1 [Jun9-62-2R]", "SARS-CoV-2", 6.05),
    ("C[C@H](NC(=O)[C@@H](c1cccnc1)N(C(=O)C(Br)(Br)Br)c1ccc(-c2ccccc2)cc1)c1ccccc1 [Jun9-88-6R]", "SARS-CoV-2", 6.24),
]
